These measurements were taken from patent US6197225A.

METHOD: Aging promotion testing: sunlight 30 min / fading one hour cycles, 10 days (durability, coloring degree)
Assay type: physicochemical
EXPERIMENTAL_PARAMETERS: YI(10)-YI(0), single chromene compound in polymer, 10 days aging; Table 5
Assign Change in the coloring degree ΔYI to each entry below.
Field format: numeric only.

Dear colleague, please send me the reported Change in the coloring degree ΔYI for CC(C)(C)c1cc2ccccc2c2c1C=CC(c1ccccc1)(c1ccccc1)O2 [Compound 1] when you can.
0.2

Dear colleague, please send me the reported Change in the coloring degree ΔYI for COc1ccc(C2(c3ccc(OC)cc3)C=Cc3c(C)cc4ccc(C)cc4c3O2)cc1 [Compound 36] when you can.
2.3

Dear colleague, please send me the reported Change in the coloring degree ΔYI for CCOc1ccc(C2(c3ccc(OC)cc3)C=Cc3c(CC)cc4c(Cc5ccccc5)cccc4c3O2)cc1 (stereo not drawn) [Compound 39] when you can.
2.5

Dear colleague, please send me the reported Change in the coloring degree ΔYI for CCOC(=O)c1c2c(c3ccccc3c1C)OC1(C=C2)C2CCCC1CCC2 (stereo not drawn) [f, reference compound] when you can.
6.0

Dear colleague, please send me the reported Change in the coloring degree ΔYI for CC(C)(C)c1cc2ccccc2c2c1C=CC1(O2)C2(Cl)CCCC1(Cl)CCC2 (stereo not drawn) [Compound 22] when you can.
3.0

Dear colleague, please send me the reported Change in the coloring degree ΔYI for COc1ccc(C2(c3ccc(OC)cc3)C=Cc3ccc4ccccc4c3O2)cc1 [a, reference compound] when you can.
2.5

Dear colleague, please send me the reported Change in the coloring degree ΔYI for CCCCc1cc2cccc(Br)c2c2c1C=CC(c1ccc(OC)c(F)c1)(c1ccc(OC)c(F)c1)O2 [Compound 38] when you can.
2.8

Dear colleague, please send me the reported Change in the coloring degree ΔYI for CC(C)(C)c1cc2ccccc2c2c1C=CC(c1ccccc1)(c1cc3ccccc3s1)O2 (stereo not drawn) [Compound 11] when you can.
1.9

Dear colleague, please send me the reported Change in the coloring degree ΔYI for CCOc1ccc(C2(c3ccc(OCC)cc3)C=Cc3c(C)cc4ccccc4c3O2)cc1 [Compound 29] when you can.
2.4

Dear colleague, please send me the reported Change in the coloring degree ΔYI for CC(C)(C)c1cc2ccccc2c2c1C=CC1(CC3CCC1C3)O2 (stereo not drawn) [Compound 18] when you can.
1.8

Dear colleague, please send me the reported Change in the coloring degree ΔYI for CC(C)(C)c1cc2ccccc2c2c1C=CC1(O2)C2CCCC1CCC2 (stereo not drawn) [Compound 2] when you can.
1.5

Dear colleague, please send me the reported Change in the coloring degree ΔYI for COc1ccc(C2(c3ccc(OC)c(F)c3)C=Cc3c(C(C)C)cc4ccccc4c3O2)cc1F [Compound 14] when you can.
1.3
